Target: GPR6 (Homo sapiens, UniProt P46095)
Construct: expressed in transfected cells; host or cells: CHO cells
Sequence (P46095 whole entry): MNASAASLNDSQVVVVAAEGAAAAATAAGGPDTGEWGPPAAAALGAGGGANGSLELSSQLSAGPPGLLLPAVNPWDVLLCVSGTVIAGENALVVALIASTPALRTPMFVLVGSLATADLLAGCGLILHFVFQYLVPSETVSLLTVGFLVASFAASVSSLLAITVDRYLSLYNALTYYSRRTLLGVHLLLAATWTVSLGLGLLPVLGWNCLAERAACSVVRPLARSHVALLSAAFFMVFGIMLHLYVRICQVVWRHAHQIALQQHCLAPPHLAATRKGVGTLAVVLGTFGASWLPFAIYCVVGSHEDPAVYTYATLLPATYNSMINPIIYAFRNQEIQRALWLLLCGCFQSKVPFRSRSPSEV
Experiment: GPR6 antagonist functional cAMP assay (LANCE Ultra cAMP TR-FRET, CHO cells stably expressing GPR6)
Type: cell-based
Settings: CHO cells stably expressing GPR6, cAMP assay
IC50 by entry:

Before answering, review these 3 worked examples.
Cn1cc(-c2nc3ccc(C(O)C(C)(C)O)nc3nc2N2CCN(Cc3ccc(F)cc3F)CC2)cn1 (centres unmarked)    1000 to 30000 nM
CC(=O)N1CCc2nc(N3CCN(C(=O)c4ccc(Cl)cc4)CC3)c(-c3cnn(C)c3)nc2C1    100 to 1000 nM
CC(C)(O)C(=O)c1cc2nc(N3CCN(Cc4ccc(F)cc4F)CC3)c(-c3cnn(C(F)F)c3)nc2cn1    100 to 1000 nM

Inquiry: Item under review: "CC(=O)N1CCc2nc(N3CCN(Cc4cc(Cl)ccc4F)CC3)c(-c3ccc(F)c(N)n3)nc2C1" . Reported IC50?
Reply text: < 100 nM

Inquiry: What would you report for Cn1cc(-c2nc3cnc(C(C)(O)CO)cc3nc2N2CCC(Oc3ccc(F)cc3F)CC2)cn1 (centres unmarked) ?
Reply text: 100 to 1000 nM

Inquiry: Try "CC(=O)N1CCc2nc(N3CCN(Cc4ccccc4Br)CC3)c(-c3cnn(C)c3)nc2C1" next.
Reply text: 100 to 1000 nM

Inquiry: Note, next up: CC(C)(O)[C@H](O)c1cc2nc(N3CCN(Cc4ccc(F)cc4F)CC3)c(-c3cnn(CF)c3)nc2cn1 (single isomer, unassigned)
Reply text: 100 to 1000 nM

Inquiry: Item: "CC(=O)N1CCc2nc(N3CCN(Cc4ccccc4Cl)CC3)c(-c3cnn(C)c3)nc2C1"
Reply text: 100 to 1000 nM

Inquiry: Now try CC(C)(O)[C@@H](O)c1cc2nc(N3CCN(Cc4ccc(F)cc4F)CC3)c(-c3cnn(CF)c3)nc2cn1 (single isomer, unassigned) .
Reply text: 100 to 1000 nM

Inquiry: How about this molecule: CC(=O)N1CCc2nc(N3CCC(Oc4ccc(F)cc4F)CC3)c(C3CC3CO)nc2C1 (centres unmarked)
Reply text: 100 to 1000 nM

Inquiry: Also need "COc1ccc(OC2CCN(c3nc4c(nc3-c3cnn(C)c3)CN(C(C)=O)CC4)CC2)cn1" , thanks.
Reply text: 1000 to 30000 nM

###

# pIC50 values compiled below
Biological target: GPR6 (Homo sapiens, UniProt P46095)
Construct: expressed in transfected cells; host or cells: CHO cells
Assay: GPR6 antagonist functional cAMP assay (LANCE Ultra cAMP TR-FRET, CHO cells stably expressing GPR6)
Type: cell-based
Details: procedure of Example 24
pIC50: −log10 of the molar value.

Below, 5 compounds whose answers are already recorded.
CC(C)(O)[C@H](O)c1cc2nc(N3CCC(=Cc4ccc(F)cc4F)CC3)c(-c3cnn(CF)c3)nc2cn1 (single isomer, unassigned)    > 7.00
CC(C)(O)C(O)c1cncc2nc(-c3cnn(C(F)F)c3)c(N3CCN(Cc4ccc(F)cc4F)CC3)nc12 (stereo not shown)    4.52 to 6.00
CCn1cc(-c2nc3cnc(CC(C)(C)O)cc3nc2N2CCC(Oc3ccc(F)cc3F)CC2)cn1    6.00 to 7.00
Cn1cc(-c2nc3c(O)nccc3nc2N2CCC(Oc3ccc(F)cc3F)CC2)cn1    4.52 to 6.00
CC(=O)N1CCc2nc(N3CCCC(Oc4ccc(F)cc4)C3)c(-c3cnn(C)c3)nc2C1 (stereo not shown)    ≤ 4.52

Inquiry: What value of pIC50 on GPR6 (Homo sapiens, UniProt P46095) does "N#Cc1cc2nc(-c3cnn(CF)c3)c(N3CCN(Cc4ccc(F)cc4F)CC3)nc2cn1" have?
Reply text: 4.52 to 6.00

Inquiry: Now the compound CCn1cc(-c2nc3c(nc2N2CCC(Oc4ccc(F)cc4F)CC2)CCN(C[C@@H](O)CO)C3)cn1 (single isomer, unassigned)
Reply text: 6.00 to 7.00

Inquiry: Also check Cn1cc(-c2nc3cc(C(C)(O)CO)ncc3nc2N2CCC(Oc3ccc(F)cc3F)CC2)cn1 (stereo not shown) [Compound 645]
Reply text: 6.00 to 7.00

Inquiry: Now try CC(=O)N1CCc2nc(N3CCC(Oc4ccc(F)cc4F)CC3)c(-c3cnn([C@H](C)C#N)c3)nc2C1 (single isomer, unassigned) .
Reply text: 6.00 to 7.00

Inquiry: How about CC(C)(O)[C@@](C)(O)c1cc2nc(N3CCN(Cc4ccc(F)cc4F)CC3)c(-c3cnn(C(F)F)c3)nc2cn1 (single isomer, unassigned) ?
Reply text: 6.00 to 7.00
